# ASSAY_METHOD_TEXT: Tissue accumulation at the site of infection (plasma, skin, skin abscess)
# TEST_CONTEXT: mouse, infected skin abscess, po, 50 mg/kg

{"MOLECULE_SMILES": "CCC(=O)/N=C1\\[C@H](C)C[C@@]2(C)OC/C(=N/OCc3ccc(-c4nc(N)cs4)cn3)CO[C@H]([C@H]1C)[C@](C)(O)[C@@H](CC)OC(=O)[C@@](C)(F)C(=O)[C@H](C)[C@H]2O[C@@H]1O[C@H](C)C[C@H](N(C)C)[C@H]1O", "AUC(0-inf) [µg·h/mL]": 617}

---

# ASSAY_METHOD_TEXT: Tissue accumulation at the site of infection (plasma, skin, skin abscess)
# TEST_CONTEXT: mouse, infected skin abscess, po, 50 mg/kg

{"MOLECULE_SMILES": "CCC(=O)/N=C1\\[C@H](C)C[C@@]2(C)OC/C(=N/OCc3ccc(-c4nc(N)cs4)cn3)CO[C@H]([C@H]1C)[C@](C)(O)[C@@H](CC)OC(=O)[C@@](C)(F)C(=O)[C@H](C)[C@H]2O[C@@H]1O[C@H](C)C[C@H](N(C)C)[C@H]1O", "Tmax (h)": 3}
